The values you see were collected from patent US10988477B2.

Biological target: intracellular GCN2 (phosphorylation of the GCN2 substrate eIF2α) (Homo sapiens)
Test: GCN2 cellular inhibition assay (AlphaScreen SureFire P-eIF2α Ser51, borrelidin-treated U2OS cells)
Format: cell-based
Settings: compounds of Formula IV; biomarker assay, phosphorylated eIF2α Ser51 in borrelidin-treated U2OS cells
pIC50: −log10 of the molar value.
Quantity name: pIC50

1. C[C@H]1[C@@H](C(=O)O)CCCN1c1ccnc(-c2cnc3cnc(C(F)F)cn23)n1 (racemic) ... < 5.30
2. FC(F)(F)c1cn2c(-c3nccc(N4CCCC(c5cncs5)C4)n3)cnc2cn1 (centres unmarked) ... 5.30 to 6.30
3. N#Cc1cccc(C(=O)N[C@H]2CCCN(c3ccnc(-c4cnc5cnc(C(F)(F)F)cn45)n3)C2)c1 ... < 5.30

Please look up its pIC50: C[C@H]1C[C@H](c2c[nH]nc2F)CN(c2nccc(-c3cnc4cnc(C(F)(F)F)cn34)n2)C1 > 6.30

Please look up its pIC50: COc1cn2c(-c3nccc(N4CCN(C(C)=O)CC4)n3)cnc2cn1 < 5.30

###

Target: intracellular GCN2 (phosphorylation of the GCN2 substrate eIF2α) (Homo sapiens, UniProt Q9P2K8)
Sequence (Q9P2K8 whole entry): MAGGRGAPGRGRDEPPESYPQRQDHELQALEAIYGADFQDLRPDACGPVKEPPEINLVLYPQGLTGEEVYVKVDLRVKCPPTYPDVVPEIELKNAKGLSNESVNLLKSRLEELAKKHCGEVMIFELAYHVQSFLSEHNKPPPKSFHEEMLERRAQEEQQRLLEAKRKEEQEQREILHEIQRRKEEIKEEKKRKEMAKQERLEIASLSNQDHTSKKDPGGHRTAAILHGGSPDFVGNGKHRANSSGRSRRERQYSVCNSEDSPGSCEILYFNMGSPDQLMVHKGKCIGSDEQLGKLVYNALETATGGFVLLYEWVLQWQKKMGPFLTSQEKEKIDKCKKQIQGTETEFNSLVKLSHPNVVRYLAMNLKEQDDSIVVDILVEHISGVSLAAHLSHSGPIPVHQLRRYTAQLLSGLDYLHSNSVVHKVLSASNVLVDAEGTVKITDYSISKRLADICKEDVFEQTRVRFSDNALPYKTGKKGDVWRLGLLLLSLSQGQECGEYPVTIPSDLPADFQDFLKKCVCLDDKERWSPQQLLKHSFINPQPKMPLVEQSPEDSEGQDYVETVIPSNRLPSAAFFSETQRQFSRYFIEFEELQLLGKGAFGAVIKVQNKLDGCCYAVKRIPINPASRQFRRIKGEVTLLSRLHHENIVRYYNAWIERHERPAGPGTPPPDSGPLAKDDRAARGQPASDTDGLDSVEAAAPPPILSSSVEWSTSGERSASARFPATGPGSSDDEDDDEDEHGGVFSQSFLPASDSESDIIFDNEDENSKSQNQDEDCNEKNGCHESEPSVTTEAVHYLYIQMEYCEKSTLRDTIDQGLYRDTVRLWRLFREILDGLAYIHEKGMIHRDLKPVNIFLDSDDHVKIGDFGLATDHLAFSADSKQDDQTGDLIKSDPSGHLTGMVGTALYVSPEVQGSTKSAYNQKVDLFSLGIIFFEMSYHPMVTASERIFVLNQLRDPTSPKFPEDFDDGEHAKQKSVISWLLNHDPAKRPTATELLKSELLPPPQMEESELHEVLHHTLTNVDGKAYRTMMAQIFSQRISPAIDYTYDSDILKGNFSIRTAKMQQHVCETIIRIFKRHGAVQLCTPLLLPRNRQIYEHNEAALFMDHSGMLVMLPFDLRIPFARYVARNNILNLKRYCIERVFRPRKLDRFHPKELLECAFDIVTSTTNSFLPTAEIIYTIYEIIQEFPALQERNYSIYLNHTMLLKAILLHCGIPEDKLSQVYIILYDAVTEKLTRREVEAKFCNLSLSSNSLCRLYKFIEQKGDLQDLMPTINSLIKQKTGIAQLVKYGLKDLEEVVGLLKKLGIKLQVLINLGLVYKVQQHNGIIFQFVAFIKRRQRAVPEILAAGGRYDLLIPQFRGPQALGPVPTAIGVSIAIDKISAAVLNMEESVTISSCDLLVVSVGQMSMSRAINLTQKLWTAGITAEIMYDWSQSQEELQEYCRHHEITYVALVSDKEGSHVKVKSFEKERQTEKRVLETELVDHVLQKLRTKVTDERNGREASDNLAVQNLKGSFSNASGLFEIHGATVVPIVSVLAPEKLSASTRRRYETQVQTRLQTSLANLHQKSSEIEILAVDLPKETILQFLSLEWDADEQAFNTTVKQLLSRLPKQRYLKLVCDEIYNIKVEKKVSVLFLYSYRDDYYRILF
Assay: GCN2 cellular inhibition assay (AlphaScreen SureFire P-eIF2α Ser51, borrelidin-treated U2OS cells)
Type: cell-based
Conditions: compounds of Formula II; biomarker assay, phosphorylated eIF2α Ser51 in borrelidin-treated U2OS cells
# key: entry, value: IC50

1. CC1CC(CNS(C)(=O)=O)CN(c2cc(-c3cnc4ccc(C(F)F)nn34)ncn2)C1C (centres unmarked) [II-544] ... < 0.5 µM

Please look up its IC50: O=C1NCCC12CCCN(c1cc(-c3cnc4ccc(C(F)F)nn34)ccn1)C2 (centres unmarked) [II-156] 0.5 to 5 µM

Please look up its IC50: CC1CCC(CNS(C)(=O)=O)CN1c1cc(-c2cnc3ccc(C(F)F)nn23)ncn1 (centres unmarked) [II-246] > 5 µM

Please look up its IC50: CC(=O)N1CCN(c2cc(-c3cnc4ccc(OC(F)F)nn34)ccn2)CC1 [II-182] > 5 µM

Please look up its IC50: CS(=O)(=O)NC[C@H]1CCCN(c2cc(-c3cnc4ccc(C(F)F)nn34)ccn2)C1 [II-154] < 0.5 µM

Please look up its IC50: O=C1NCC2CN(c3cc(-c4cnc5ccc(C(F)F)nn45)ncn3)CCN12 (centres unmarked) [II-46] > 5 µM

Please look up its IC50: CS(=O)(=O)NC[C@@H]1CN(c2cc(-c3cnc4ccc(C(F)F)nn34)ncn2)CC(=O)N1 [II-25] > 5 µM

Please look up its IC50: FC(F)c1ccc2ncc(-c3ccnc(N4CC5(CNC5)C4)c3)n2n1 [II-79] > 5 µM

Please look up its IC50: CC(O)c1ccc2ncc(-c3cc(N4C[C@@H](CNS(C)(=O)=O)C(F)(F)[C@@H](C)C4)ncn3)n2n1 (some centres unmarked) [II-337] > 5 µM

Please look up its IC50: CS(=O)(=O)C1CCN(c2cc(-c3cnc4ccc(C(F)F)nn34)ncn2)C1 (centres unmarked) [II-395] > 5 µM

Please look up its IC50: NS(=O)(=O)N1CCOC2(CN(c3cc(-c4cnc5ccc(C(F)F)nn45)ncn3)C2)C1 [II-285] > 5 µM

Please look up its IC50: Cn1cc(C(=O)N2CCCC(c3cc(-c4cnc5ccc(C(F)F)nn45)ncn3)C2)cn1 (centres unmarked) [II-41] 0.5 to 5 µM

Please look up its IC50: NS(=O)(=O)NCC1CCN(c2cc(-c3cnc4ccc(C(F)F)nn34)ncn2)C1 (centres unmarked) [II-415] > 5 µM

Please look up its IC50: O=C1OC[C@@H]2CN(c3cc(-c4cnc5ccc(C(F)F)nn45)ncn3)CCN12 [II-47] 0.5 to 5 µM

Please look up its IC50: CS(C)(=O)=N[C@H]1CCCN(c2cc(-c3cnc4ccc(C(F)F)nn34)ncn2)C1 (single isomer, unassigned) [II-502] < 0.5 µM

Please look up its IC50: [O-][S+]1CCN(c2cc(-c3cnc4ccc(C(F)F)nn34)ncn2)CC1 [II-296] > 5 µM

Please look up its IC50: NC(=O)C1CN(c2cc(-c3cnc4ccc(C(F)F)nn34)ccn2)CCO1 (centres unmarked) [II-135] 0.5 to 5 µM
